assay_method_text: Carotenoid ester content in plasma, back skin and abdominal fat of broilers (HPLC)
Format: in vivo, broiler chickens (Ross 308, Ross 508)
test_parameters: average over doses, Table 4
metric: Analytical Content as Equivalent of Ethyl β-apo-8′-carotenoate in % of control Plasma (%)

COC(=O)C(C)=CC=CC(C)=CC=CC=C(C)C=CC=C(C)C=CC1=C(C)CCCC1(C)C [(1), methyl beta-apo-8′-carotenoate] = 88
CC(C=CC=C(C)C=CC1=C(C)CCCC1(C)C)=CC=CC=C(C)C=CC=C(C)C(=O)OCC(C)(C)C [(8)] = 78
CC(C=CC=C(C)C=CC1=C(C)CCCC1(C)C)=CC=CC=C(C)C=CC=C(C)C(=O)OCC(C)C [(4), isobutyl beta-apo-8′-carotenoate] = 58
CCCOC(=O)C(C)=CC=CC(C)=CC=CC=C(C)C=CC=C(C)C=CC1=C(C)CCCC1(C)C [(2), n-propyl beta-apo-8′-carotenoate] = 68
CC(C=CC=C(C)C=CC1=C(C)CCCC1(C)C)=CC=CC=C(C)C=CC=C(C)C(=O)OCCC(C)C [(6), isoamyl beta-apo-8′-carotenoate] = 62
CCC(C)COC(=O)C(C)=CC=CC(C)=CC=CC=C(C)C=CC=C(C)C=CC1=C(C)CCCC1(C)C (stereo not drawn) [(7), 2-methyl-butyl beta-apo-8′-carotenoate] = 62

* * *

assay_method_text: Carotenoid ester content in plasma, back skin and abdominal fat of broilers (HPLC)
Format: in vivo, broiler chickens (Ross 308, Ross 508)
test_parameters: average over doses, Table 4
metric: Analytical Content as Equivalent of Ethyl β-apo-8′-carotenoate in % of control Skin (%)

CC(C=CC=C(C)C=CC1=C(C)CCCC1(C)C)=CC=CC=C(C)C=CC=C(C)C(=O)OC(C)CC(C)C (centres unmarked) = 85
CCC(C)COC(=O)C(C)=CC=CC(C)=CC=CC=C(C)C=CC=C(C)C=CC1=C(C)CCCC1(C)C (stereo not drawn) [(7), 2-methyl-butyl beta-apo-8′-carotenoate] = 40
CCC(C)OC(=O)C(C)=CC=CC(C)=CC=CC=C(C)C=CC=C(C)C=CC1=C(C)CCCC1(C)C (stereo not drawn) [(5), sec. butyl beta-apo-8′-carotenoate] = 74

I: CC(C=CC=C(C)C=CC1=C(C)CCCC1(C)C)=CC=CC=C(C)C=CC=C(C)C(=O)OC1CCCC1 [(15), cyclopentyl beta-apo-8′-carotenoate]
II: CCCOC(=O)C(C)=CC=CC(C)=CC=CC=C(C)C=CC=C(C)C=CC1=C(C)CCCC1(C)C [(2), n-propyl beta-apo-8′-carotenoate]
Which entry has a larger number for Analytical Content as Equivalent of Ethyl β-apo-8′-carotenoate in % of control Skin, I or II ? State the label of the item chosen.
I
(I: 77%, II: 45%)

* * *

assay_method_text: Carotenoid ester content in plasma, back skin and abdominal fat of broilers (HPLC)
Type: in vivo, broiler chickens (Ross 308, Ross 508)
test_parameters: average over doses, Table 4
metric: Analytical Content as Equivalent of Ethyl β-apo-8′-carotenoate in % of control Plasma (%)

CC(C=CC=C(C)C=CC1=C(C)CCCC1(C)C)=CC=CC=C(C)C=CC=C(C)C(=O)OC1CCCCC1 [(16), cyclohexyl beta-apo-8′-carotenoate] = 60
CCCC(C)COC(=O)C(C)=CC=CC(C)=CC=CC=C(C)C=CC=C(C)C=CC1=C(C)CCCC1(C)C (stereo not drawn) [(11)] = 59
CCC(C)OC(=O)C(C)=CC=CC(C)=CC=CC=C(C)C=CC=C(C)C=CC1=C(C)CCCC1(C)C (stereo not drawn) [(5), sec. butyl beta-apo-8′-carotenoate] = 94
CCC(CC)COC(=O)C(C)=CC=CC(C)=CC=CC=C(C)C=CC=C(C)C=CC1=C(C)CCCC1(C)C [(9), 2-ethyl-1-butyl beta-apo-8′-carotenoate] = 59
CC(C=CC=C(C)C=CC1=C(C)CCCC1(C)C)=CC=CC=C(C)C=CC=C(C)C(=O)OC1CCCC1 [(15), cyclopentyl beta-apo-8′-carotenoate] = 76
CC(C=CC=C(C)C=CC1=C(C)CCCC1(C)C)=CC=CC=C(C)C=CC=C(C)C(=O)OC(C)CC(C)C (stereo not drawn) [(12)] = 66
